system: MCF7; experiment: Cytotoxicity against human MCF7 cells after 3 days by MTT assay; format: functional, cell-based
IC50 overview

- MOLECULAR STRING: "CCc1c2c(nc3ccc(OCC[n+]4cccc(C)c4)cc13)-c1cc3c(c(=O)n1C2)COC(=O)[C@]3(O)CC.[Br-]"
  DISPLAY UNIT: "nM/ml"
  IC50: 5.04
- MOLECULAR STRING: "CC[C@@]1(O)C(=O)OCc2c1cc1n(c2=O)Cc2cc3cc(OCCCn4cncn4)ccc3nc2-1"
  DISPLAY UNIT: "nM/ml"
  IC50: 0.62
- MOLECULAR STRING: "CCc1c2c(nc3ccc(OCC[n+]4cccc(CO)c4)cc13)-c1cc3c(c(=O)n1C2)COC(=O)[C@]3(O)CC.[Br-]"
  DISPLAY UNIT: "nM/ml"
  IC50: 1.74
- MOLECULAR STRING: "CC[C@@]1(O)C(=O)OCc2c1cc1n(c2=O)Cc2cc3cc(OCCCn4cnc5cncnc54)ccc3nc2-1"
  DISPLAY UNIT: "nM/ml"
  IC50: 2.09

====

// reported fold change (FC) for each item listed
target: UniProt:P11387; experiment: Inhibition of topoisomerase 1-mediated supercoiled pBR322 relaxation assessed as change in band intensity by electrophoresis relative to camptothecin; also: test concentration or dose not given here
Sequence (P11387 whole entry): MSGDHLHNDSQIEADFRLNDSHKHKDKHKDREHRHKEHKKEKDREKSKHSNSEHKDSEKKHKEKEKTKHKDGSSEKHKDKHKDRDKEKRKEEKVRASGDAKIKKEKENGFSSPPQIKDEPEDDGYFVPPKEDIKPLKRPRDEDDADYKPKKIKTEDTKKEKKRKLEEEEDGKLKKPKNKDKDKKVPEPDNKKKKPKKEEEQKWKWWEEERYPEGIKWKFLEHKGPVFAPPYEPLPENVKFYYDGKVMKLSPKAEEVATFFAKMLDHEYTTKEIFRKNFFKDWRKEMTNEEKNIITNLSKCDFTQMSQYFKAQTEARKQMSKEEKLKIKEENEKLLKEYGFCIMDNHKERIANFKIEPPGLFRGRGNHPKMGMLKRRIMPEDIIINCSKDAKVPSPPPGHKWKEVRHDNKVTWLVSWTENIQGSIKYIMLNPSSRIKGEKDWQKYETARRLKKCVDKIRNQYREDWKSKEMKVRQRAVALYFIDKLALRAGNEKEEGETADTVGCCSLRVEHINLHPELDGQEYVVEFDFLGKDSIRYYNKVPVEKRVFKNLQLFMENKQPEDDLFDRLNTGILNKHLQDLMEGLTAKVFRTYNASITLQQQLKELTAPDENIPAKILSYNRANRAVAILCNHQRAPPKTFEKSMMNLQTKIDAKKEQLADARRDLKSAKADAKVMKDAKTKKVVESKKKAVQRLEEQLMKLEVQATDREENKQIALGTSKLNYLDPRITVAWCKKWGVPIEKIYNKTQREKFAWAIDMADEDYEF

- MOLECULAR STRING: "CCc1c2c(nc3ccc(OCCC[n+]4ccccc4)cc13)-c1cc3c(c(=O)n1C2)COC(=O)[C@]3(O)CC.[Br-]"
  fold change (FC): 0.96
- MOLECULAR STRING: "CC[C@@]1(O)C(=O)OCc2c1cc1n(c2=O)Cc2cc3cc(OCC[n+]4cccc(CO)c4)ccc3nc2-1.[Br-]"
  fold change (FC): 0.7
- MOLECULAR STRING: "CCc1c2c(nc3ccc(OCC[n+]4cccc(C)c4)cc13)-c1cc3c(c(=O)n1C2)COC(=O)[C@]3(O)CC.[Br-]"
  fold change (FC): 1.07
- MOLECULAR STRING: "CC[C@@]1(O)C(=O)OCc2c1cc1n(c2=O)Cc2cc3cc(OCCC[n+]4cccc(C)c4)ccc3nc2-1.[Br-]"
  fold change (FC): 0.72
- MOLECULAR STRING: "CC[C@@]1(O)C(=O)OCc2c1cc1n(c2=O)Cc2cc3cc(OCC[n+]4ccccc4)ccc3nc2-1.[Br-]"
  fold change (FC): 1.03
- MOLECULAR STRING: "CCc1c2c(nc3ccc(OCCCn4ccnc4)cc13)-c1cc3c(c(=O)n1C2)COC(=O)[C@]3(O)CC"
  fold change (FC): 1.01
- MOLECULAR STRING: "CC[C@@]1(O)C(=O)OCc2c1cc1n(c2=O)Cc2cc3cc(OCCCn4cncn4)ccc3nc2-1"
  fold change (FC): 0.62
- MOLECULAR STRING: "CC[C@@]1(O)C(=O)OCc2c1cc1n(c2=O)Cc2cc3cc(OCC[n+]4cccc(C)c4)ccc3nc2-1.[Br-]"
  fold change (FC): 1.02

====

system: MCF7; test: Cytotoxicity against human MCF7 cells after 3 days by MTT assay; format: functional, cell-based

- MOLECULAR STRING: "CCc1c2c(nc3ccc(OCCC[n+]4cccc(CO)c4)cc13)-c1cc3c(c(=O)n1C2)COC(=O)[C@]3(O)CC.[Br-]"
  IC50: "1.38 nM/ml"
- MOLECULAR STRING: "CCc1c2c(nc3ccc(OCCCn4cnc5cncnc54)cc13)-c1cc3c(c(=O)n1C2)COC(=O)[C@]3(O)CC"
  IC50: "1.23 nM/ml"
- MOLECULAR STRING: "CCc1c2c(nc3ccc(OCCCOc4cc(C(F)(F)F)ncn4)cc13)-c1cc3c(c(=O)n1C2)COC(=O)[C@]3(O)CC"
  IC50: "0.08 nM/ml"
- MOLECULAR STRING: "CCc1c2c(nc3ccc(OCCCn4ccnc4)cc13)-c1cc3c(c(=O)n1C2)COC(=O)[C@]3(O)CC"
  IC50: "0.16 nM/ml"

====

system: KB; experiment: Cytotoxicity against human KB cells after 3 days by MTT assay; format: functional, cell-based
Below, each entry is listed alongside its reported IC50.

- COMPOUND: "CCc1c2c(nc3ccc(OCCC[n+]4cccc(F)c4)cc13)-c1cc3c(c(=O)n1C2)COC(=O)[C@]3(O)CC.[Br-]"
  CENSOR SYMBOL: "="
  IC50, nM/ml: 1.9
- COMPOUND: "CCc1c2c(nc3ccc(OCC[n+]4cccc(C(C)=O)c4)cc13)-c1cc3c(c(=O)n1C2)COC(=O)[C@]3(O)CC.[Br-]"
  CENSOR SYMBOL: "="
  IC50, nM/ml: 0.09
- COMPOUND: "CCc1c2c(nc3ccc(OCC[n+]4cccc(C)c4)cc13)-c1cc3c(c(=O)n1C2)COC(=O)[C@]3(O)CC.[Br-]"
  CENSOR SYMBOL: "="
  IC50, nM/ml: 0.06
- COMPOUND: "CC[C@@]1(O)C(=O)OCc2c1cc1n(c2=O)Cc2cc3cc(OCC[n+]4cccc(CO)c4)ccc3nc2-1.[Br-]"
  CENSOR SYMBOL: "="
  IC50, nM/ml: 6.57
- COMPOUND: "CC[C@@]1(O)C(=O)OCc2c1cc1n(c2=O)Cc2cc3cc(OCC[n+]4cccc(F)c4)ccc3nc2-1.[Br-]"
  CENSOR SYMBOL: "="
  IC50, nM/ml: 0.68
- COMPOUND: "CCc1c2c(nc3ccc(OCCC[n+]4cccc(CO)c4)cc13)-c1cc3c(c(=O)n1C2)COC(=O)[C@]3(O)CC.[Br-]"
  CENSOR SYMBOL: "="
  IC50, nM/ml: 0.52
- COMPOUND: "CC[C@@]1(O)C(=O)OCc2c1cc1n(c2=O)Cc2cc3cc(OCC[n+]4cccc(C(C)=O)c4)ccc3nc2-1.[Br-]"
  CENSOR SYMBOL: "="
  IC50, nM/ml: 6.28
- COMPOUND: "CCc1c2c(nc3ccc(OCCC[n+]4ccccc4)cc13)-c1cc3c(c(=O)n1C2)COC(=O)[C@]3(O)CC.[Br-]"
  CENSOR SYMBOL: "="
  IC50, nM/ml: 0.02
- COMPOUND: "CC[C@@]1(O)C(=O)OCc2c1cc1n(c2=O)Cc2cc3cc(OCCC[n+]4cccc(C)c4)ccc3nc2-1.[Br-]"
  CENSOR SYMBOL: "<"
  IC50, nM/ml: 0.01
- COMPOUND: "CC[C@@]1(O)C(=O)OCc2c1cc1n(c2=O)Cc2cc3cc(OCC[n+]4ccccc4)ccc3nc2-1.[Br-]"
  CENSOR SYMBOL: "="
  IC50, nM/ml: 0.72
- COMPOUND: "CCc1c2c(nc3ccc(OCCCn4cncn4)cc13)-c1cc3c(c(=O)n1C2)COC(=O)[C@]3(O)CC"
  CENSOR SYMBOL: "="
  IC50, nM/ml: 0.04
- COMPOUND: "CC[C@@]1(O)C(=O)OCc2c1cc1n(c2=O)Cc2cc3c(CN(C)C)c(O)ccc3nc2-1 [TOPOTECAN]"
  CENSOR SYMBOL: "="
  IC50, nM/ml: 0.07
- COMPOUND: "CCc1c2c(nc3ccc(OCC[n+]4cccc(F)c4)cc13)-c1cc3c(c(=O)n1C2)COC(=O)[C@]3(O)CC.[Br-]"
  CENSOR SYMBOL: "="
  IC50, nM/ml: 0.19
- COMPOUND: "CCc1c2c(nc3ccc(OCCC[n+]4cccc(C)c4)cc13)-c1cc3c(c(=O)n1C2)COC(=O)[C@]3(O)CC.[Br-]"
  CENSOR SYMBOL: "<"
  IC50, nM/ml: 0.01
- COMPOUND: "CCc1c2c(nc3ccc(OCCCn4ccnc4)cc13)-c1cc3c(c(=O)n1C2)COC(=O)[C@]3(O)CC"
  CENSOR SYMBOL: "="
  IC50, nM/ml: 0.32
- COMPOUND: "CCc1c2c(nc3ccc(OCC[n+]4ccccc4)cc13)-c1cc3c(c(=O)n1C2)COC(=O)[C@]3(O)CC.[Br-]"
  CENSOR SYMBOL: "="
  IC50, nM/ml: 0.08
- COMPOUND: "CCc1c2c(nc3ccc(OCC[n+]4cccc(CO)c4)cc13)-c1cc3c(c(=O)n1C2)COC(=O)[C@]3(O)CC.[Br-]"
  CENSOR SYMBOL: "="
  IC50, nM/ml: 0.61
- COMPOUND: "CCc1c2c(nc3ccc(OCCC[n+]4cccc(C(C)=O)c4)cc13)-c1cc3c(c(=O)n1C2)COC(=O)[C@]3(O)CC.[Br-]"
  CENSOR SYMBOL: "="
  IC50, nM/ml: 4.82
- COMPOUND: "CCc1c2c(nc3ccc(OCCCn4cnc5cncnc54)cc13)-c1cc3c(c(=O)n1C2)COC(=O)[C@]3(O)CC"
  CENSOR SYMBOL: "="
  IC50, nM/ml: 0.13
- COMPOUND: "CC[C@@]1(O)C(=O)OCc2c1cc1n(c2=O)Cc2cc3ccccc3nc2-1 [CAMPTOTHECIN]"
  CENSOR SYMBOL: "<"
  IC50, nM/ml: 0.013
- COMPOUND: "CC[C@@]1(O)C(=O)OCc2c1cc1n(c2=O)Cc2cc3cc(OCC[n+]4cccc(C)c4)ccc3nc2-1.[Br-]"
  CENSOR SYMBOL: "="
  IC50, nM/ml: 1.3
- COMPOUND: "CCc1c2c(nc3ccc(OCCCOc4cc(C(F)(F)F)ncn4)cc13)-c1cc3c(c(=O)n1C2)COC(=O)[C@]3(O)CC"
  CENSOR SYMBOL: "="
  IC50, nM/ml: 0.02
- COMPOUND: "CC[C@@]1(O)C(=O)OCc2c1cc1n(c2=O)Cc2cc3cc(OCCC[n+]4ccccc4)ccc3nc2-1.[Br-]"
  CENSOR SYMBOL: "="
  IC50, nM/ml: 0.06
